Please provide measured Mean score (growth of neurite of chicken embryonic dorsal root ganglion) for the entries that follow.
- System: chicken embryonic dorsal root ganglia
- METHOD NOTES: Neurotrophic activity: in-vitro serum-free culture model of chicken embryonic dorsal root ganglia, neurite growth score
- Format: cell-based
- TEST CONDITIONS: compound 1 pM + NGF (0.15 ng/mL), 48 h; score 0-3; control 0.33
Respond using a number only.

For the compound Cc1ccc(S(=O)(=O)N2CCSC[C@H]2C(=O)N[C@H](CC(C)C)C(=O)OC(C)C)cc1 , report Mean score (growth of neurite of chicken embryonic dorsal root ganglion).
1.68

For the compound CCOC(=O)[C@@H](CC(C)C)NC(=O)[C@@H]1CSCCN1S(=O)(=O)c1ccc(C)cc1 , report Mean score (growth of neurite of chicken embryonic dorsal root ganglion).
1.23

For the compound CCOC(=O)[C@H](CC(C)C)NC(=O)[C@@H]1CSCCN1S(=O)(=O)c1ccc(C)cc1 , report Mean score (growth of neurite of chicken embryonic dorsal root ganglion).
0.65

For the compound CCCOC(=O)[C@@H](CC(C)C)NC(=O)[C@@H]1CSCCN1S(=O)(=O)c1ccc(C)cc1 , report Mean score (growth of neurite of chicken embryonic dorsal root ganglion).
1.46
